# System: DU-145 prostate
# protocolDescription: NCI-60 one-dose screen, 48 h
# conditionDetails: 10 µM unless noted
The panel holds about 83,000 compounds, 20% with a hit somewhere; the sample as a whole holds those more often. Calls of active or inactive are those of the source. Rule for the calls: active = growth percent below 10; inactive = the rest.
Pick one and only one: active, inactive

CC(NC(=O)c1ccccc1)C(=O)Nc1ccccc1 (stereo unspecified) : inactive

Ask | Record lookup: outcome of this test for CCN1C(=O)N(CC)C2C1N=C(SC)N2/N=C/C=C/c1ccccc1OC (stereo unspecified) ?
Reply | active

Ask | Record lookup: outcome of this test for `O=C(c1ccccc1)c1cccc(C(Br)Br)c1` ?
Reply | inactive

Ask | Record lookup: outcome of this test for CC(=O)O[C@@H]1CC2C(C)(C)CCCC2(C)C2=C1C(=O)C(C(C)C)=CC2=O (stereo partly specified) ?
Reply | active

Ask | Record lookup: outcome of this test for `COc1ccc(Nc2nc(N)nc3c(=O)[nH]ccc23)cc1` ?
Reply | inactive

Ask | Record lookup: outcome of this test for CN1C(=O)N(C)C2C1NN=c1s/c(=C\c3ccsc3)c(=O)n12 (stereo unspecified) ?
Reply | inactive
